- Test system: CYPIR (Rice Flatsedge)
- testProtocol: Preemergence weed control under flooded paddy conditions
- Format: in vivo, Cyperus iria
- assayConditions: 0.0313 kg/ha, rated 3-4 weeks after treatment
Exercise: for every item that follows, state its recorded herbicidal effect rating, CYPIR.
Give bare numbers.

Completed entries (count: 3):
# molecule, target, herbicidal effect rating, CYPIR
data = [
    ("CCOC(=O)CN1C(=O)C(OC)SC1=Nc1cc(-n2c(=O)cc(C(F)(F)F)n(C)c2=O)c(F)cc1Cl (stereo not shown) [Compound 160]", "CYPIR (Rice Flatsedge)", 0.0),
    ("Cc1cc(C)cc(CN2C(=O)CSC2=Nc2cc(-n3c(=O)cc(C(F)(F)F)n(C)c3=O)c(F)cc2Cl)c1 [Compound 146]", "CYPIR (Rice Flatsedge)", 4.0),
    ("CCOC(=O)CN1C(=O)C(CC(=O)O)SC1=Nc1cc(N2C(=O)CC(C(F)(F)F)CC2=O)c(F)cc1Cl (stereo not shown) [Compound 170]", "CYPIR (Rice Flatsedge)", 9.0),
]

Then there is this molecule:
Field request: herbicidal effect rating, CYPIR | item: CCN1C(=O)CSC1=Nc1cc(-n2c(=O)cc(C(F)(F)F)n(C)c2=O)c(F)cc1Cl [Compound 159] 0.0
